# target: T1, His-MIF (His-tag/T7 gene 10 leader/Xpress-MIF fusion) (UniProt P14174 P14174:1-115)
# T1 chain: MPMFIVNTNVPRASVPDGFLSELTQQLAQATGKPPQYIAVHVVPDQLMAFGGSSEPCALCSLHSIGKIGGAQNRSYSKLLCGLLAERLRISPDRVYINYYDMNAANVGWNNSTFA
# test method notes: SPR; 600 nM His-MIF
# test parameters: MIF 115 aa; ATGen
assay readout: binding result

| binder | value reported |
| --- | --- |
| His_10 (ssRNA, 3' A20 tail for capture) RNA: GGGACGCUCACGUACGCUCAUUAGCUUAGCUUCAUGCCCGGGUGUACUGGAGAUCUCUUAUCAGUGCCUGGACGUGCAGU | binds |
| His_4 (ssRNA, 3' A20 tail for capture) RNA: GGGACGCUCACGUACGCUCAUAAGGGUGUACUGGCGAUUGUUGGGACGCACUUCAAUUUGUCAGUGCCUGGACGUGCAGU | binds |
| His_3 (ssRNA, 3' A20 tail for capture) RNA: GGGACGCUCACGUACGCUCAGGUGUACUGGCACUACUGAAAUUUCAUUUGAGUAGGUCUGUCAGUGCCUGGACGUGCAGU | binds |
